- ASSAY EXPLANATION: Inhibition of Trypanosoma brucei Leucyl-tRNA synthetase
EXPERIMENTAL READOUT: IC50 (µM)
Express it in µM; write the number only.

Can you look up the measured IC50 of CCOC(=O)COc1ccc2c(c1)B(O)OC2 for me?
1.6

###

- Tested on: Trypanosoma brucei
- ASSAY EXPLANATION: Antitrypanosomal activity against Trypanosoma brucei assessed as growth inhibition
- Format: functional, organism-based
EXPERIMENTAL READOUT: pEC50
Units for pEC50: none; it is -log10 of a concentration expressed in mol/L.

Fill in the blank: the reported pEC50 of CC(=O)C(C)(C)Oc1ccc2c(c1)B(O)OC2 is ____.
6.43
